Assay: Safety and tolerability study, single-dose pharmacokinetics (Parts A, B, C)
Assay type: in vivo, human
Details: both sexes, human, plasma, oral, 5 mg, Part B, healthy elderly overall, 5 mg, arithmetic mean; read-out: Vz/F
assay-endpoint: Vd/F (L)
Answers are plain numbers, in L.

Request: Entry Cc1ccc(C(=O)Nc2nc(-c3ccco3)c(C(=O)C3CCOCC3)s2)cn1 has what Vd/F?
Result: 16.9

----------
Assay: Safety and tolerability study, single-dose pharmacokinetics (Parts A, B, C)
Type: in vivo, human
Conditions: female, human, plasma, oral, 10 mg, Part B, healthy elderly women, arithmetic mean
assay-endpoint: AUC(0-inf)
Respond with a number, then the unit of measure.

Request: Entry Cc1ccc(C(=O)Nc2nc(-c3ccco3)c(C(=O)C3CCOCC3)s2)cn1 has what AUC(0-inf)?
Result: 14100 ng·h/mL

----------
Assay: Safety and tolerability study, single-dose pharmacokinetics (Parts A, B, C)
Type: in vivo, human
Conditions: male, human, plasma, oral, 10 mg, Part B, healthy elderly men, 10 mg, median; read-out: tmax
assay-endpoint: Tmax (min)
One number for each entry, in min.

Request: Entry Cc1ccc(C(=O)Nc2nc(-c3ccco3)c(C(=O)C3CCOCC3)s2)cn1 has what Tmax?
Result: 45

----------
Test: Safety and tolerability study, single-dose pharmacokinetics (Parts A, B, C)
Format: in vivo, human
Settings: female, human, plasma, oral, 10 mg, Part B, healthy elderly women, 10 mg, arithmetic mean; read-out: Vz/F
assay-endpoint: Vd/F

Request: Entry Cc1ccc(C(=O)Nc2nc(-c3ccco3)c(C(=O)C3CCOCC3)s2)cn1 [Compound 504] has what Vd/F?
Result: 19.6 L

----------
Test: Safety and tolerability study, single-dose pharmacokinetics (Parts A, B, C)
Assay type: in vivo, human
Conditions: both sexes, human, plasma, oral, 5 mg, Part C, elderly men and women, Fed (N = 12)
assay-endpoint: Cmax (ng/mL)
Give bare numbers, in ng/mL.

Request: Entry Cc1ccc(C(=O)Nc2nc(-c3ccco3)c(C(=O)C3CCOCC3)s2)cn1 [Compound 504] has what Cmax?
Result: 269
